# target: proteasome of MDA-MB-231 cell extract (Homo sapiens, UniProt P28072+P28074+Q99436)
# Construct: endogenous in cells; host or cells: MDA-MB-231 whole-cell extract
# Sequence (P28074 60-263): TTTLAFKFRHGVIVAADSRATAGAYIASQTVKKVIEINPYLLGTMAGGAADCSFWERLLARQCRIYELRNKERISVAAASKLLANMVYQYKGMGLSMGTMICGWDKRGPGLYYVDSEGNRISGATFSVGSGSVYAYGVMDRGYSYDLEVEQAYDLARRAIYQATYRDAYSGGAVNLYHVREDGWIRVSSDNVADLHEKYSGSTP
# Sequence (P28072 1-239): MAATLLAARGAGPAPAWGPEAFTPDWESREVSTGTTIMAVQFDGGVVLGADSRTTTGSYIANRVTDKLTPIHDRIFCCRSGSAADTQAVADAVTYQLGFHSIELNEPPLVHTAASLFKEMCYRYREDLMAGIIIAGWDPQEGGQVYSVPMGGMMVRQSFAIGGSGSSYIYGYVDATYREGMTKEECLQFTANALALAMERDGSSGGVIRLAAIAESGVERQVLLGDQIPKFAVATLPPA
# Sequence (Q99436 44-277): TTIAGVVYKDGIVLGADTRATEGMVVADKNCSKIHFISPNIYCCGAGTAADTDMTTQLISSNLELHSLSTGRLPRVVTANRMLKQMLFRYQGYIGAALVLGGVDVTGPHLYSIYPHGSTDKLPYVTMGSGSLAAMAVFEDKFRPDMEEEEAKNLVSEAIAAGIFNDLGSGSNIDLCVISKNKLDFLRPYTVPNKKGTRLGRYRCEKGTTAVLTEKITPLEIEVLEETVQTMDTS
# assay-name: Proteasome activity assay on MDA-MB-231 whole-cell extract
# Type: biochemical
# condition-description: 2 h incubation, read-out: IC50 Chymotrypsin-like activity
# Experimental: Likewise, MDA-MB-231 whole-cell extract (10 µg/well) was incubated in quadruplicate with each complex and each fluorogenic substrate in 100 µL of assay buffer [20 mM Tris-HCl (pH 7.5)]. Fluorescence data were acquired after 1 hour and 2 hours incubation at 37°C. The whole-cell extract was prepared as described elsewhere.
reported-endpoint: IC50 (µM)

compound="C[N+](CC(=O)NC(C)(C)C(=O)OC(C)(C)C)=C1[S][Au-]([Br])([Br])[S]1 [AuD8, [Au^IIIBr2(dtc-Sar-AA-O(t-Bu))]]" number=2.9
compound="C[N+](CC(=O)NCC(=O)OC(C)(C)C)=C1[S][Au-]([Br])([Br])[S]1 [AuD6, [Au^IIIBr2(dtc-Sar-AA-O(t-Bu))]]" number=3.3
